Reference for the values: PubChem BioAssay (NCI)

# Test system: SF-268 CNS
# protocol: NCI-60 one-dose screen, 48 h (100 = growth as untreated, 0 = no growth, -100 = all killed)
# cond: 10 µM unless noted
The panel holds about 83,000 compounds, 20% with a hit somewhere; the sample as a whole holds those more often.
recordedMetric: growth (%)
Unit % implied. Number only.

So what's the measured growth for this one? `COc1cc(C(=O)c2c(-c3ccccc3)oc3ccccc23)cc(OC)c1O`
59.9

Which growth value is on record for `CC1(C)CC[C@]2(CO)CC[C@]3(C)[C@H](CC[C@@H]4[C@@]5(C)CC[C@H](O)C(C)(C)[C@@H]5CC[C@]43C)[C@H]2[C@H]1O` ?
83.7

Look up growth: CO[C@H]1/C=C/O[C@@]2(C)Oc3c(C)c(O)c4c(O)c(c5c(nc6cc(C)ccn65)c4c3C2=O)NC(=O)/C(C)=C\C=C\[C@H](C)[C@H](O)[C@@H](C)C(O)[C@@H](C)[C@H](OC(C)=O)[C@@H]1C (some centres undefined)
102

Could you share which growth value was measured for `Cc1cccc(CN(Nc2ccccc2)c2ccccc2)n1` ?
101

Return reported growth; argument: `CN1CCN(CCCNC(=O)c2c3c(n4ccccc24)C(=O)c2ncccc2C3=O)CC1`
9.37

Can you look up the measured growth of `O=C(Cn1cc(CSc2nc3ccccc3o2)nn1)Nc1ccc([N+](=O)[O-])cc1` for me?
91.8

Recorded growth for `COc1ccc2c(c1)C(c1c[nH]c3ccccc13)(c1c[nH]c3ccccc13)CCO2` , please?
52.2

What value of growth has been reported for the following compound? `CCCCN(CCC#N)C(N)=O`
99.7

Please give the measured growth for this compound: COc1c(O[C@@H]2OC(CO)[C@H](O)[C@H](O)C2O)cc2oc3cc(O)c(CC=C(C)C)c(O)c3c(=O)c2c1CC=C(C)C (some centres undefined)
92.1
